Values compiled from ChEMBL document CHEMBL1155882.

- tested_target: P2Y purinoceptor 2 (Homo sapiens)
- Sequence (P41231 whole entry): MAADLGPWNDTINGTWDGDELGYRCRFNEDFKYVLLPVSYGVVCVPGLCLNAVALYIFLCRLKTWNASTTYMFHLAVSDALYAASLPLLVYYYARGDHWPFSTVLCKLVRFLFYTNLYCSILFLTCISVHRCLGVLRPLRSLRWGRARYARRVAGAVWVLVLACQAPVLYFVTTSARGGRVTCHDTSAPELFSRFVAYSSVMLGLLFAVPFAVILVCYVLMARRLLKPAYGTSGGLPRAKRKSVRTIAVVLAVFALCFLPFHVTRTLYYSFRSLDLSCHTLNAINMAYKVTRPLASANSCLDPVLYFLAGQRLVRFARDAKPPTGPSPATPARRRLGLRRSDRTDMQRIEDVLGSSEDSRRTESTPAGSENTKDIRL
- protocol_text: Antagonist activity at human P2Y2 receptor expressed in human 1321N1 cells assessed as inhibition of UTP-induced intracellular calcium mobilization at 100 uM by FLUOstar plate reader
- Assay type: functional, cell-based
parameter: inhibition

INSERT INTO measurements (smiles_repr, readout_value) VALUES
  ('CCOP(=O)(CNC(=O)CCNC(=O)[C@H]1O[C@@H](n2cnc3c(N)ncnc32)[C@H](O)[C@@H]1O)OCC', '29%'),
  ('CCOP(=O)(CNC(=O)CCNC(=O)[C@H]1O[C@@H](n2ccc(=O)[nH]c2=O)[C@H](O)[C@@H]1O)OCC', '43%');

Endpoint output: inhibition of CCOP(=O)(Cc1ccc(NC(=O)CCNC(=O)[C@H]2O[C@@H](n3cnc4c(N)ncnc43)[C@H](O)[C@@H]2O)cc1)OCC . Value? 46%
